tested on: HT29 colon; assay: NCI-60 one-dose screen, 48 h; conditions: 10 µM unless noted
The panel holds about 83,000 compounds, 20% with a hit somewhere; the sample as a whole holds those more often. Active and inactive are the calls of the source. Rule for the calls: active = growth percent below 10; inactive = the rest.
Lab note: assign the record to one of active, inactive

molecule: O=C(Nc1ccc(Oc2ccc(F)cc2)c(Cl)c1)c1cccnn1
cat: inactive

Recorded test outcome, item CCN(CC)CCCOc1ccc2c(c1)O/C(=C\c1cccc(OC)c1)C2=O
inactive

Recorded test outcome, item COc1ccc2nc3cc(Cl)ccc3c(Nc3ccc(O)cc3)c2c1
inactive

Recorded test outcome, item CCCSc1nc(N)nc2nc[nH]c12
inactive

Recorded test outcome, item COc1ccc(-c2cc(-c3ccccc3)nc(NCCNc3ccnc4cc(Cl)ccc34)n2)cc1
active

Recorded test outcome, item CCN(CC)c1ccc2cc(C(Nc3ccc(Br)c(C(F)(F)F)c3)c3nnnn3C(C)(C)C)c(=O)oc2c1 (centres undefined)
inactive

Recorded test outcome, item FC(F)(F)c1ccc2c(c1)Sc1ccccc1N2
inactive

Recorded test outcome, item C[n+]1cccc(NC(=O)c2ccc3ccc4ccc(C(=O)Nc5ccc[n+](C)c5)nc4c3n2)c1
inactive

----------
tested on: SN12C renal; assay: NCI-60 one-dose screen, 48 h; conditions: 10 µM unless noted
The panel holds about 83,000 compounds, 20% with a hit somewhere; the sample as a whole holds those more often. Activity calls are given as the source filed them. The calls were made as follows: active = growth percent below 10; inactive = the rest.
Lab note: assign the record to one of 1 (yes) = active, 0 (no) = inactive

compound: O=[N+]([O-])c1cc([N+](=O)[O-])c(C(F)(F)F)cc1NN=C(c1ccc(O)cc1)c1ccc(O)cc1
cat: 0 (no)
//
compound: Cc1cc(SC#N)ncn1
cat: 0 (no)
//
compound: CCCCCN(CCCCC)CCCCCCCCN1CCCc2ccccc21
cat: 0 (no)
//
compound: CC(C)=CC/C=C(/C)[C@H]1CC[C@]2(C)[C@@H]1CC[C@@H]1[C@@]3(C)CCCNC(C)(C)[C@@H]3CC[C@]12C
cat: 1 (yes)
//
compound: CC1(C)NCCC[C@]2(C)[C@H]3C=CC4=C5C[C@](C)(CO)CC[C@]5(C)CC[C@@]4(C)[C@]3(C)CC[C@@H]12
cat: 1 (yes)
//
compound: CCCCC(CC)COC(=O)C[N+](C)(C)CCOC(c1ccccc1)c1ccccc1 (stereo not given)
cat: 0 (no)

Recorded test outcome, item C=C(C)[C@@H]1CC[C@]2(COC(=O)c3ccccc3C(=O)O)CC[C@]3(C)[C@H](CC[C@@H]4[C@@]5(C)CC[C@H](OC(=O)c6ccccc6C(=O)O)C(C)(C)[C@@H]5CC[C@]43C)[C@@H]12
0 (no)

Recorded test outcome, item C=CCCCCCCCCC(=O)OC(C)C
0 (no)

Recorded test outcome, item C=C(C)[C@@H]1CC[C@]2(C(=O)NCCCCCCN(CCCN)CCCN)CC[C@]3(C)[C@H](CC[C@@H]4[C@@]5(C)CC[C@H](OCCCN)C(C)(C)[C@@H]5CC[C@]43C)[C@@H]12
0 (no)

Recorded test outcome, item Cc1ccc(-c2cc(-c3ccc(C)cc3)nc(N3CCN(CCNc4ccnc5cc(Cl)ccc45)CC3)n2)cc1
0 (no)

Recorded test outcome, item CCOC(=O)Nc1ccc2c(c1)/C(=N\NC(=S)NC)c1ccccc1-2
0 (no)

Recorded test outcome, item Nc1cc(NN=C(c2ccc(O)cc2)c2ccc(O)cc2)c([N+](=O)[O-])cc1[N+](=O)[O-]
0 (no)

Data origin: PubChem BioAssay (NCI)
